Entry source: paper PMC12748989

tested on: MDA-MB-231 cells
Lab note: anything with Average (percentage cell inhibition), Dmastoparan MDA-MB231 12.5uM at or over 40% counts as TRUE; the rest go in FALSE.

Smiles Repr	Cat
CC[C@H](C)[C@H](NC(=O)[C@H](CCCCN)NC(=O)[C@H](CCCCN)NC(=O)[C@H](C)NC(=O)[C@H](CC(C)C)NC(=O)[C@H](C)NC(=O)[C@H](C)NC(=O)[C@H](CC(C)C)NC(=O)[C@H](C)NC(=O)[C@H](CCCCN)NC(=O)[C@H](CC(C)C)NC(=O)[C@H](CC(N)=O)NC(=O)[C@@H](N)C(C)C)C(=O)N[C@@H](CC(C)C)C(N)=O	FALSE
CC[C@H](C)[C@H](N)C(=O)N[C@@H](CC(N)=O)C(=O)N[C@@H](CCCCN)C(=O)N[C@@H](CCCCN)C(=O)N[C@@H](C)C(=O)N[C@@H](CC(C)C)C(=O)N[C@@H](C)C(=O)N[C@@H](C)C(=O)N[C@@H](CC(C)C)C(=O)N[C@@H](C)C(=O)N[C@@H](CCCCN)C(=O)N[C@@H](CCCCN)C(=O)N[C@H](C(=O)N[C@@H](CC(C)C)C(N)=O)[C@@H](C)CC	FALSE
CC[C@H](C)[C@H](N)C(=O)N[C@@H](CC(N)=O)C(=O)N[C@@H](CC(C)C)C(=O)N[C@@H](CCCCN)C(=O)N[C@@H](C)C(=O)N[C@@H](CC(C)C)C(=O)N[C@@H](Cc1ccc(O)cc1)C(=O)N[C@@H](C)C(=O)N[C@@H](CC(C)C)C(=O)N[C@@H](C)C(=O)N[C@@H](CCCCN)C(=O)N[C@@H](CCCCN)C(=O)N[C@H](C(=O)N[C@@H](CC(C)C)C(N)=O)[C@@H](C)CC	TRUE
CC[C@H](C)[C@H](N)C(=O)N[C@@H](CC(N)=O)C(=O)N[C@@H](CC(C)C)C(=O)N[C@H](C(=O)N[C@@H](C)C(=O)N[C@@H](CC(C)C)C(=O)N[C@@H](C)C(=O)N[C@@H](C)C(=O)N[C@@H](CC(C)C)C(=O)N[C@@H](C)C(=O)N[C@@H](CCCCN)C(=O)N[C@@H](CCCCN)C(=O)N[C@H](C(=O)N[C@@H](CC(C)C)C(N)=O)[C@@H](C)CC)[C@@H](C)O	FALSE
